# experiment: protein stability index of a GFP-peptide fusion (GPS, HEK-293T) (PSI 1-6); higher = more stable;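 also: 24-mer peptide tiles fused after GFP, lentivirally expressed, FACS-sorted into six equal bins by GFP/DsRed ratio, decoded by Illumina sequencing, PSI is the read-weighted mean bin number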
# conditionSet: treatment: MLN4924 1 uM, 8 h; c terminus: a fixed tail appended
observedProperty: protein stability index
Please reply with the value in numeric form only.

Here is how some sequences turned out for protein stability index.
May I ask what protein stability index has been recorded for GRLLFAGYNDYTINVWDVLKGSRV [GNB5] ?
2.18

// lookup protein stability index for QEELQIQAAVAAGDVHTVRKMLEQ [ASB7]
4.73

Entry under review: LSMDEKVELYRIKFKESFAEMNRG [COX4I1] . Reported protein stability index?
2.97

Others:
So what's the measured protein stability index for this one? ADPMDWSPSNVQKWLLWTEHQYRL [SPDEF]
2.43

Recorded protein stability index for LQEVLSSDENGGTYVSPPGNEEEE [DDIT3] , please?
5.42

Looking for the measured protein stability index of LQLRYSLRILIGDPPHHDHHDEFC [BEX5] , can you help?
2.48

Request the reported protein stability index associated with LVNHVNIRLQAELEEGENPVPAFQ [SMG5]
4.07

protein stability index lookup needed for PAVPEEILKRLLKEQHLWDVDLLD [DLC1] , thanks.
3.12

What does the record list as protein stability index for PQALPEPMQESKAEGNNQAPGEEE [CHGA] ?
5.5

# query: protein stability index of entry GEGKLSKRLKHKDDSVMKATQQAR [C22orf31]
4.81

Please report the recorded protein stability index for VVKKIALREIRMLKQLKHPNLVNL [CDKL4] .
2.63

Tell me the measured protein stability index of YDWLFFSPDKDSIMNIEPAILVMH [INTS3] , please.
2.16

Please give the measured protein stability index for this sequence: LYPALKGVNTVFHCASPPPSSNNK [NSDHL]
3.52

----------
# experiment: protein stability index of a GFP-peptide fusion (GPS, HEK-293T) (PSI 1-6); higher = more stable
# conditionSet: treatment: DMSO; c terminus: a fixed tail appended
Decide by protein stability index: equal to or exceeding 3 means YES, less means NO.

Exam item: decide whether the reported protein stability index for IQGQNKEMLAAACQMFLGKTEAEI [FLOT1] is at least 3.
YES

Has FLLLIVFYTAITKKIFKSHLKSSR [P2RY14] a recorded protein stability index greater than or equal to 3?
NO

New cases:
Given the entry EEADDTRYTQGTGGDEVDDSVSVN [ZC3H15] , answer whether its protein stability index meets or surpasses 3.
YES

// inclusive: protein stability index at least 3? input: ELTFSYIAFDGVVGSGGRRDSTAR [RTN2]
YES

Please tell me: is the sequence KCDSLKEECIPEHMVRESKIMEAE [FAN1] at or over 3 in terms of protein stability index?
YES

Kindly determine if protein stability index recorded for RIKIWDVYTGKLLLNLVDHTEVVR [WSB1] is above or exactly 3.
NO

Please indicate if the recorded protein stability index for ETHLRHMKALLGSYAHSVEDTHVQ [FCHO1] meets or exceeds 3.
YES

Exam item: decide whether the reported protein stability index for PPPPIDNGDITSFLLSVYAPGSSV [CFHR2] is at least 3.
NO

Would you say SSLPGHAAKTLPGGAGKGRTPSAF [EHMT1] shows protein stability index at minimum 3?
YES

Is it the case that HLIKHRRTHTGEQPYTCSICRRNF [ZNF75A] has protein stability index reaching or exceeding 3?
NO

Identify whether the reported protein stability index of the following sequence is 3 or greater: ADDESLLRTSNGQPVKTAGEITQH [DNAAF3]
YES

# check: protein stability index of NYRSFEPILRLLPQGISPVSQHWA [ZER1] is greater than or equal to 3
NO
